# Test system: normal cell line LX-2
# assay: MTT cytotoxicity assay, normal cell line LX-2
# Type: cell-based
# condition_label: 72 h, LX-2, c 4.00 μM, three replicates
Label met when inhibition at 4 µM >= 20%; otherwise not met.

Example results:
INSERT INTO measurements (compound, target_desc, group) VALUES
  ('CCCC(O)C1=C(C)C(=O)CC1C (stereo not drawn)', 'normal cell line LX-2', 'not met'),
  ('COc1cccc2c1C(=O)c1c(O)c3c(c(O)c1C2=O)C[C@@](O)(C(=O)CO)C[C@@H]3O[C@H]1C[C@H](N)[C@H](O)[C@H](C)O1 [Adriamycin, reference compound]', 'normal cell line LX-2', 'not met'),
  ('CC(C)[C@@H](C)C=C[C@@H](C)[C@H]1CC[C@@]2(O)C3=CC(=O)C4=CC(=O)CC[C@]4(C)[C@H]3CC[C@]12C', 'normal cell line LX-2', 'met'),
  ('C/C(=C\C=C\[C@]1(C)OC(=O)[C@@H](C)[C@@H]1O)[C@H](C)O', 'normal cell line LX-2', 'not met');

Does inhibition at 4 µM meet or surpass 20% for CC(=O)OC(C)C(C)=CC=CC1(C)OC(=O)C(C)C1O (stereo not drawn) ?
not met

Does inhibition at 4 µM meet or surpass 20% for CC(C)[C@@H](C)/C=C/[C@@H](C)C1CCC2C3=CC(=O)OC4=CC(=O)CC[C@]4(C)C3CC[C@@]21C (stereo partly drawn) ?
not met

Does inhibition at 4 µM meet or surpass 20% for CCCC(O)C1=C(C)C(=O)C(C)C1 (stereo not drawn) ?
not met

Does inhibition at 4 µM meet or surpass 20% for CC1(O)CC2OC23C(C)(C)C(Cl)CCC3(C)C1C(=O)O (stereo not drawn) ?
not met

Does inhibition at 4 µM meet or surpass 20% for CC(C)[C@@H](C)/C=C/[C@@H](C)[C@H]1CCC(=O)[C@]23CC(=O)C4=CC(=O)CC[C@]4(C)[C@H]2CC[C@]13C ?
met

---

# System: MCF-7 (breast cancer)
# assay: MTT cytotoxicity assay, MCF-7 cells
# Assay type: cell-based, human
# condition_label: Homo sapiens, MCF7, 72 h, MCF-7, c 2.00 μM, three replicates; read-out: cell inhibition
Label 1 when inhibition at 2 µM >= 8%; otherwise 0.

INSERT INTO measurements (compound, group) VALUES
  ('COc1cccc2c1C(=O)c1c(O)c3c(c(O)c1C2=O)C[C@@](O)(C(=O)CO)C[C@@H]3O[C@H]1C[C@H](N)[C@H](O)[C@H](C)O1 [Adriamycin, reference compound]', 1),
  ('CCCC(O)C1=C(C)C(=O)CC1C (stereo not drawn)', 0),
  ('CC(C)[C@@H](C)/C=C/[C@@H](C)C1CCC2C3=CC(=O)OC4=CC(=O)CC[C@]4(C)C3CC[C@@]21C (stereo partly drawn)', 1),
  ('CCCC(O)C1=C(C)C(=O)C(C)C1 (stereo not drawn)', 1),
  ('C/C(=C\C=C\[C@]1(C)OC(=O)[C@@H](C)[C@@H]1O)[C@H](C)O', 0);

Does inhibition at 2 µM meet or surpass 8% for CC(C)[C@@H](C)/C=C/[C@@H](C)[C@H]1CCC(=O)[C@]23CC(=O)C4=CC(=O)CC[C@]4(C)[C@H]2CC[C@]13C ?
1

Does inhibition at 2 µM meet or surpass 8% for CC(=O)OC(C)C(C)=CC=CC1(C)OC(=O)C(C)C1O (stereo not drawn) ?
1

Does inhibition at 2 µM meet or surpass 8% for CC1(O)CC2OC23C(C)(C)C(Cl)CCC3(C)C1C(=O)O (stereo not drawn) ?
0

Does inhibition at 2 µM meet or surpass 8% for CC(C)[C@@H](C)C=C[C@@H](C)[C@H]1CC[C@@]2(O)C3=CC(=O)C4=CC(=O)CC[C@]4(C)[C@H]3CC[C@]12C ?
1
